- Test system: COLO 205
- test_name: NCI-60 SRB screen
- Assay type: cell-based, human
- assay_setup: Homo sapiens; single dose 10^−5 M; COLO 205, Colon cancer; read-out: Growth inhibition (%)
readout_label: inhibition at 10 µM (%)
Quick reminder: number only, in %, skip the unit.

Q. Give the value of inhibition at 10 µM reported for the following: N#CC1=C(Cl)NC(c2cccc([N+](=O)[O-])c2)c2sc3c(F)cccc3c21 (stereo not shown) [Compound 7b]
A. -14.6

Q. Give the value of inhibition at 10 µM reported for the following: CCN1CCN(C2=C(Cl)c3c(sc4c(F)cccc34)C(c3cccc([N+](=O)[O-])c3)N2)CC1 (stereo not shown) [Compound 8a]
A. -11.9

Q. Give the value of inhibition at 10 µM reported for the following: CCN1CCN(C2=C(C#N)c3c(sc4c(F)cccc34)C(c3cccc([N+](=O)[O-])c3)N2)CC1 (stereo not shown) [Compound 8d]
A. -5.97

Q. Give the value of inhibition at 10 µM reported for the following: N#CC1=C(N2CCOCC2)NC(c2cccc([N+](=O)[O-])c2)c2sc3c(F)cccc3c21 (stereo not shown) [Compound 8e]
A. -17.4
